Reported IC50 is given for each of the following compounds.
Biological target: PSG G322A (PSD-95)
Assay: FP displacement (competition) of FITC-15 AA CRIPT by library peptide, IC50 and Ki
Conditions: read-out: IC50 (µM), PSG G322A; FP displacement of FITC-15 AA CRIPT probe by PSD library peptide; protein PSG G322A
Write it as a number; the unit µM goes unstated.

| smiles record | IC50 [µM] |
| --- | --- |
| CC(=O)N[C@@H](Cc1ccc(O)cc1)C(=O)N[C@@H](CO)C(=O)N[C@@H](CO)C(=O)N[C@H](C(=O)N[C@@H](CO)C(=O)N1CCC[C@H]1C(=O)N[C@@H](CCC(N)=O)C(=O)N[C@@H](CO)C(=O)N[C@H](C(=O)N[C@@H](CC(=O)O)C(=O)N[C@@H](CCCCN)C(=O)N[C@@H](CO)C(=O)N[C@@H](CO)C(=O)N[C@H](C(=O)N[C@H](C(=O)O)C(C)C)[C@@H](C)O)[C@@H](C)O)[C@@H](C)O | 792 |
| CC(=O)N[C@@H](Cc1ccc(O)cc1)C(=O)N[C@@H](CC(=O)O)C(=O)N[C@@H](CO)C(=O)N[C@H](C(=O)N[C@@H](CCC(=O)O)C(=O)N[C@@H](CCC(N)=O)C(=O)N[C@@H](CO)C(=O)N[C@@H](CC(=O)O)C(=O)N[C@H](C(=O)N[C@@H](CCCNC(=N)N)C(=O)N[C@@H](Cc1ccccc1)C(=O)N[C@@H](CO)C(=O)N[C@@H](CO)C(=O)N[C@@H](C)C(=O)N[C@H](C(=O)O)C(C)C)C(C)C)[C@@H](C)O | 190 |

--- query ---
What measured IC50 is associated with "CC[C@H](C)[C@H](NC(=O)[C@H](CO)NC(=O)[C@@H]1CCCN1C(=O)[C@H](CCSC)NC(=O)[C@H](CCCCN)NC(=O)[C@H](CCCCN)NC(=O)[C@H](Cc1ccc(O)cc1)NC(=O)[C@@H](NC(=O)[C@H](CCCNC(=N)N)NC(=O)[C@H](CCCNC(=N)N)NC(=O)[C@H](Cc1ccc(O)cc1)NC(C)=O)C(C)C)C(=O)N[C@@H](CCC(=O)O)C(=O)N[C@@H](CO)C(=O)N[C@@H](CC(=O)O)C(=O)N[C@H](C(=O)O)C(C)C" on PSG G322A (PSD-95)?
153

* * *

Molecular target: PSG (PSD-95)
Assay: FP displacement (competition) of FITC-15 AA CRIPT by library peptide, IC50 and Ki
Settings: read-out: IC50 (µM), PSG; FP displacement of FITC-15 AA CRIPT probe by acetylated PSD library peptide
reported endpoint: IC50 (µM)
Numeric answer only, unit µM assumed.

| smiles record | IC50 / µM |
| --- | --- |
| CC[C@H](C)[C@H](NC(=O)[C@@H](NC(=O)[C@H](CCCCN)NC(=O)[C@H](CCCCN)NC(=O)CNC(=O)[C@H](CC(C)C)NC(=O)[C@H](CCCCN)NC(=O)[C@H](C)NC(=O)[C@H](CCSC)NC(=O)[C@H](CCCNC(=N)N)NC(=O)[C@H](CCSC)NC(=O)[C@H](CCCNC(=N)N)NC(=O)[C@H](CC(C)C)NC(=O)[C@H](C)NC(=O)[C@H](Cc1ccc(O)cc1)NC(C)=O)C(C)C)C(=O)O | 1160 |
| CC(=O)N[C@@H](Cc1ccc(O)cc1)C(=O)N[C@@H](CC(C)C)C(=O)N1CCC[C@H]1C(=O)N[C@@H](CC(C)C)C(=O)N[C@@H](CC(=O)O)C(=O)N[C@H](C(=O)N[C@@H](CCC(N)=O)C(=O)N[C@@H](CCC(=O)O)C(=O)NCC(=O)N[C@@H](CC(=O)O)C(=O)N[C@@H](Cc1ccccc1)C(=O)N[C@@H](CCC(N)=O)C(=O)N[C@H](C(=O)N[C@@H](CCC(=O)O)C(=O)N[C@H](C(=O)O)C(C)C)[C@@H](C)O)C(C)C | 1080 |

IC50 lookup needed for "CC[C@H](C)[C@H](NC(=O)[C@H](Cc1ccccc1)NC(=O)[C@H](CO)NC(=O)[C@H](CCCNC(=N)N)NC(=O)[C@H](CCCCN)NC(=O)[C@@H]1CCCN1C(=O)[C@H](CCCCN)NC(=O)[C@H](C)NC(=O)[C@H](C)NC(=O)[C@@H](NC(=O)[C@H](Cc1ccc(O)cc1)NC(C)=O)[C@@H](C)O)C(=O)N[C@@H](CCC(=O)O)C(=O)N[C@@H](CO)C(=O)N[C@@H](CC(N)=O)C(=O)N[C@H](C(=O)O)C(C)C" , thanks.
67
